Values were extracted from patent US20140370037A1.

# tgt: T1, human DLL3 antigen (human, UniProt Q9NYJ7 27-492)
# T1 chain: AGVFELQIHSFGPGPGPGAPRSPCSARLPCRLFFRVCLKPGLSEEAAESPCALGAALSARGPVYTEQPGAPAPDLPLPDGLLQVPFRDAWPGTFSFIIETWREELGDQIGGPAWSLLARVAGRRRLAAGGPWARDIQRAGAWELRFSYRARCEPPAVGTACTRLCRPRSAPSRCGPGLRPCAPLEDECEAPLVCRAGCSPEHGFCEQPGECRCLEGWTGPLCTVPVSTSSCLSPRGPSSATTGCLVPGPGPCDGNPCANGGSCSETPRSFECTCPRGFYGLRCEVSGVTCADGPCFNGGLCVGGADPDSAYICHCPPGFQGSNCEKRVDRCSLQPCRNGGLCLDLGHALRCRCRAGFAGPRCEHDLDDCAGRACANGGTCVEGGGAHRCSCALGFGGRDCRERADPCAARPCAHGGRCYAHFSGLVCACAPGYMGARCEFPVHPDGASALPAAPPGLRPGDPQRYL
# assay.method.text: ForteBio
measure: pKd
Give bare numbers, as −log10 of the molar value.

Answered examples (3):
Quick note, pKd for SC16.67 (antibody, V domains shown) VH: EVQLVETGGGLVQPKGSLKLSCAVSAFTFTTYAMNWVRQAPGKGLEWVARIRNKSNNYATYYADSVKDRFTISRDDSQSMLYLQMNNLKIEDTAMYYCVFYYDYVYWGQGTLVTVSA VL: QAVVTQESALTTSPGETVTLTCRSSTGAVTTSNYANWIQEKPDHLFTGLIGGTNNRAPGVPARFSGSLIGDKAALTITGAQTEDEAIYFCGLWYSNHLVFGGGTKLTVL landed at 9.30

The reported pKd of the binder SC16.4 (antibody, V domains shown) VH: QIQLVQSGPELKKPGETVKISCKASGYTFTDYSMHWVKQAPGKGLKWMGWINTETGEPGYADDFKGRFAFSLETSASTAYLQINNLKNEDTATYFCARYDGYAMDYWGQGTSVTVSS VL: DIQMTQTTSSLSASLGDRVTISCRASQDISNYLNWYQQKPDGTVKLLIYYTSRLHSGVPSRFSGSGSGTDYSLTISNLELEDIATYFCQQGDMLPWTFGGGTKLEIK was 9.30

pKd in this record for SC16.10 (antibody, V domains shown) VH: QVTLKESGPGILQSSQTLSLTCSFSGFSLSTSGMGVGWIRQPSGKGLEWLAHIWWDDVKRYNPVLKSRLTISKDTSSSQVFLKIASVDTADTATYYCARLVDDLYYFDYWGQGTTLTVSS VL: QIVLTQSPAIMSASLGERVTMTCTASSSVSSSYLHWYQQKPGSSPKLWIYSTSNLASGVPTRFSGSGSGTSYSLTISSMEAEDAATYYCHQYHRSPFTFGSGTKLEIK : 8.40

Continuing:
pKd measured on SC16.8 (antibody, V domains shown) VH: QAQLQQSGAELVRPGTSVKVSCKASGYAFTNYLIEWVKQRPGQGLEWIGVINPGTGGTNYNENFKGKATLTADKSSSTAYMQLSSLTSDDSAVYFCARSPYDYHEGAMDYWGQGTSVTVSS VL: EIQMTQSPSSMSASLGDRITITCQATQDIVKNLNWYQQKPGKPPSFLIYYAIELAEGVPSRFSGSGSGSDYSLTISNLESEDFADYYCLQFYEFPFTFGAGTKLELK = 9.30
